# target-under-test: UniProtKB Q05940
# Sequence (Q05940 whole entry): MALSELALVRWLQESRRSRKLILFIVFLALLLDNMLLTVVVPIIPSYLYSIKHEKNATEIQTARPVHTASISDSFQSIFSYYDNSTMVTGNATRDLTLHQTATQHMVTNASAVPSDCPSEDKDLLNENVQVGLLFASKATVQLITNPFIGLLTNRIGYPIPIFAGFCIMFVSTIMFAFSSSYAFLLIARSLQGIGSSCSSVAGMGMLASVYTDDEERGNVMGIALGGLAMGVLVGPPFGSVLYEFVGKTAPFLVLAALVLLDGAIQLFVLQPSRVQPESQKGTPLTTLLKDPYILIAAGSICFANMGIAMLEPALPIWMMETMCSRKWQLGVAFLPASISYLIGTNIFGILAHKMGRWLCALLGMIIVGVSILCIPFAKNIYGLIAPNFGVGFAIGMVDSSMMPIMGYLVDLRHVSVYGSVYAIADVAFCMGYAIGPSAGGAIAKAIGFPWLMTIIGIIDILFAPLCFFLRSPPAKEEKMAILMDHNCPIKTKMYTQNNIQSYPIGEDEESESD
# experiment-summary: hVMAT2 5HT Uptake
# Format: biochemical
# Design: expressed in transfected cells; host or cells: HEK (human embryonic kidney) cells
# particulars: [^3H]5HT uptake, HEK-hVMAT2 preparation; read-out: hVMAT2 5HT Uptake IC50 (nM) ± SEM
# met = IC50 below 60 nM (exclusive); not met = IC50 at/above 60 nM

# strict comparison: is reported IC50 < 60 nM? input = CCOC(=O)[C@@H]1CN(CCn2c(=O)[nH]c3ccccc3c2=O)CC[C@@H]1c1cccc(F)c1 (racemic)
not met

# strict comparison: is reported IC50 < 60 nM? input = CCOC(=O)[C@H]1CN(CCn2c(=O)[nH]c3ccccc3c2=O)CC[C@H]1c1ccccc1F (racemic)
met

# strict comparison: is reported IC50 < 60 nM? input = CCOC(=O)[C@@H]1CN(CCn2c(=O)[nH]c3sccc3c2=O)CC[C@@H]1c1cccc(F)c1 (racemic)
not met

# strict comparison: is reported IC50 < 60 nM? input = CCOC(=O)[C@@H]1CN(CCn2c(=O)[nH]c3ccccc3c2=O)CC[C@@H]1c1ccc([N+](=O)[O-])cc1 (racemic)
not met

# strict comparison: is reported IC50 < 60 nM? input = CCOC(=O)[C@@H]1CN(CCn2c(=O)[nH]c3sccc3c2=O)CC[C@@H]1c1ccc(F)cc1 (racemic)
not met

# strict comparison: is reported IC50 < 60 nM? input = CCOC(=O)[C@@H]1CN(CCn2c(=O)[nH]c3ccccc3c2=O)CC[C@@H]1c1ccccc1 (racemic)
met

# strict comparison: is reported IC50 < 60 nM? input = CCOC(=O)[C@@H]1CN(CCn2c(=O)[nH]c3ccccc3c2=O)CC[C@@H]1c1ccc(Cl)cc1 (racemic)
met
